target: Kinesin-like protein KIFC3 (Homo sapiens); test: Inhibition of KIFC3 (unknown origin)-mediated ATP hydrolysis assessed as residual activity at 1 uM after 10 to 20 mins by spectrophotometric analysis
So I've got a bunch of compounds here, and I need their Activity values.
Mention the unit after the number when you answer.

compound	Activity
CC(C)C(c1nc2cc(Cl)ccc2c(=O)n1Cc1ccccc1)N(CCCN)C(=O)c1cccc(F)c1 (racemic)	99.4%
Cc1ccc(C(=O)N(CCCN)[C@@H](c2nc3cc(Cl)ccc3c(=O)n2Cc2ccccc2)C(C)C)cc1 [ISPINESIB]	97.3%
CC(C)[C@@H](c1nc2cc(Cl)ccc2c(=O)n1Cc1ccccc1)N(CCCN)C(=O)c1ccc(F)cc1	98.7%
CC(C)[C@H](c1nc2cc(Cl)ccc2c(=O)n1Cc1ccccc1)N(CCCN)C(=O)c1ccc(F)cc1	101%
CC(C)[C@H](c1nc2cc(Cl)ccc2c(=O)n1Cc1ccccc1)N(CCCN)C(=O)c1ccccc1F	99.4%

Please report Activity for every entry that follows.
1. CC(C)[C@@H](c1nc2cc(Cl)ccc2c(=O)n1Cc1ccccc1)N(CCCN)C(=O)c1ccccc1F
2. CC(C)[C@@H](c1nc2cc(Cl)ccc2c(=O)n1Cc1ccccc1)N(CCCN)C(=O)c1cccc(F)c1
3. Cc1ccc(C(=O)N(CCCN)[C@H](c2nc3cc(Cl)ccc3c(=O)n2Cc2ccccc2)C(C)C)cc1

98.8%
98.9%
97.9%
